All values here come from patent US20240101531A1.

target: human KV7.2/KV7.3 (Homo sapiens (Human), UniProt O43525+O43526); assay: Potassium flux assay (IPG-2 AM dye); type: cell-based; settings: TREX HEK 293 or HEK 293 cells expressing human KV7.2/KV7.3; arithmetic mean values
pEC50: −log10 of the molar value.
property_label: pEC50

Reference set, count: 8
{"compound": "CO[C@H]1CC[C@@H](Oc2ccc3c(Nc4ccc(Cl)nc4)nccc3c2)CC1", "pEC50": "4.52 to 5.00"}
{"compound": "FC(F)C1(COc2ccc3c(Nc4ccc(Cl)nc4)nccc3c2)COC1", "pEC50": "> 6.00"}
{"compound": "Cc1cn(C)nc1COc1ccc2c(Nc3ccc(Cl)nc3)nccc2c1", "pEC50": "5.00 to 6.00"}
{"compound": "CO[C@@H]1CCC[C@H](Oc2ccc3c(Nc4cnc(Cl)nc4)nccc3c2)C1 (racemic)", "pEC50": "> 6.00"}
{"compound": "Clc1ccc(Nc2nccc3cc(OC4CC5CCC(C4)N5Cc4ccccc4)ccc23)cn1 (stereo not drawn)", "pEC50": "4.52 to 5.00"}
{"compound": "COc1ncc(Nc2nccc3cc(OCC4(F)CC4)ccc23)cn1", "pEC50": "5.00 to 6.00"}
{"compound": "Fc1cc2c(Nc3ccc(Cl)nc3)nccc2cc1OCC1(F)CC1", "pEC50": "4.52 to 5.00"}
{"compound": "Cc1ncc(Nc2nccc3cc(OCc4cn[nH]c4)ccc23)cn1", "pEC50": "5.00 to 6.00"}

Consider now this further compound.
stdin: // fetch human KV7.2/KV7.3 (Homo sapiens (Human), UniProt O43525+O43526) pEC50 for CC1(C)CC[C@H](COc2ccc3c(Nc4ccc(Cl)nc4)nccc3c2)O1
stdout: 5.00 to 6.00

----------
Below is a list of entries, each paired with its recorded EC50 value.
target: human KV7.2/KV7.3 (Homo sapiens (Human), UniProt O43525+O43526); assay: Potassium flux assay (IPG-2 AM dye); settings: TREX HEK 293 or HEK 293 cells expressing human KV7.2/KV7.3; arithmetic mean values

The cases that follow already have their EC50 on record.
{"molecule": "Clc1ccc(Nc2nccc3cc(COc4cn[nH]c4)ccc23)cn1", "EC50": "1000 to 10000 nM"}
{"molecule": "NC(COc1ccc2c(Nc3ccc(Cl)nc3)nccc2c1)C(F)(F)F (stereo not drawn)", "EC50": "1000 to 10000 nM"}
{"molecule": "O[C@@H]1CCCC[C@@H]1Oc1ccc2c(Nc3ccc(Cl)nc3)nccc2c1 (relative stereo)", "EC50": "< 1000 nM"}
{"molecule": "CC(Cc1cccnc1)Oc1ccc2c(Nc3ccc(Cl)nc3)nccc2c1 (stereo not drawn)", "EC50": "1000 to 10000 nM"}
{"molecule": "CC(=O)N1CC[C@H](Oc2ccc3c(Nc4ccc(Cl)nc4)nccc3c2)C1", "EC50": "1000 to 10000 nM"}

stdin: human KV7.2/KV7.3 (Homo sapiens (Human), UniProt O43525+O43526) / EC50 / COC1(COc2ccc3c(Nc4ccc(Cl)nc4)nccc3c2)CC1 : value?
stdout: < 1000 nM

stdin: Any idea what EC50 came out for CC(=O)N1CCC(COc2ccc3c(Nc4ccc(Cl)nc4)nccc3c2)CC1 on human KV7.2/KV7.3 (Homo sapiens (Human), UniProt O43525+O43526)?
stdout: < 1000 nM

stdin: Form field - read-out: EC50; system: human KV7.2/KV7.3 (Homo sapiens (Human), UniProt O43525+O43526); submitted item: CO[C@H]1CC[C@H](Oc2ccc3c(Nc4ccc(Cl)nc4)nccc3c2)CC1
stdout: 10000 to 30000 nM

stdin: Notebook: pull reported EC50 for human KV7.2/KV7.3 (Homo sapiens (Human), UniProt O43525+O43526), entry CC(Oc1ccc2c(Nc3ccc(Cl)nc3)nccc2c1)c1cnn(C)c1 (racemic)
stdout: < 1000 nM

----------
molecular target: human KV7.2/KV7.3 (Homo sapiens (Human), UniProt O43525+O43526); test: Potassium flux assay (IPG-2 AM dye); conditions: TREX HEK 293 or HEK 293 cells expressing human KV7.2/KV7.3; arithmetic mean values
Structures can show the parent of a compound that is named as a salt.
property_label: EC50

Sample answers from the record:
{"compound": "CC(Oc1ccc2c(Nc3ccc(Cl)nc3)nccc2c1)C1(F)CC1 (centres unmarked)", "EC50": "< 1000 nM"}
{"compound": "NS(=O)(=O)C1(COc2ccc3c(Nc4ccc(Cl)nc4)nccc3c2)CCC1", "EC50": "< 1000 nM"}
{"compound": "CS(=O)(=Nc1ccc2c(Nc3ccc(Cl)nc3)nccc2c1)C1CCOCC1 (centres unmarked)", "EC50": "1000 to 10000 nM"}
{"compound": "Clc1ccc(Nc2nccc3cc(O[C@@H]4CCOC4)ccc23)cn1 [Example 297, trifluoroacetate]", "EC50": "< 1000 nM"}

stdin: Using the record for FC(F)COc1ccc2c(Nc3cnc(Cl)nc3)nccc2c1 , report its EC50.
stdout: < 1000 nM

----------
molecular target: human KV7.2/KV7.3 (Homo sapiens (Human), UniProt O43525+O43526); test: Potassium flux assay (IPG-2 AM dye); conditions: TREX HEK 293 or HEK 293 cells expressing human KV7.2/KV7.3; arithmetic mean values
Structures can show the parent of a compound that is named as a salt.
property_label: EC50

Look over these answered cases.
{"compound": "Clc1ncc(Nc2nccc3cc(OCCc4cn[nH]c4)ccc23)cn1 [Example 390, formate]", "EC50": "< 1000 nM"}
{"compound": "FC1(COc2ccc3c(Nc4ccc(Cl)nc4)nccc3c2)COC1", "EC50": "< 1000 nM"}
{"compound": "Cc1nn(C)cc1COc1ccc2c(Nc3ccc(Cl)nc3)nccc2c1", "EC50": "< 1000 nM"}

stdin: Test system human KV7.2/KV7.3 (Homo sapiens (Human), UniProt O43525+O43526); read-out EC50; what value for Clc1ccc(Nc2nccc3cc(Oc4ccccc4)ccc23)cn1 ?
stdout: 1000 to 10000 nM

stdin: // map CC1(C)OCC(COc2ccc3c(Nc4ccc(Cl)nc4)nccc3c2)O1 (stereo not drawn) to recorded EC50 (system: human KV7.2/KV7.3 (Homo sapiens (Human), UniProt O43525+O43526))
stdout: < 1000 nM

stdin: Please tell me: EC50 of COc1cc(Nc2nccc3cc(OCc4cnn(C)c4)ccc23)cnc1Cl , system human KV7.2/KV7.3 (Homo sapiens (Human), UniProt O43525+O43526)?
stdout: < 1000 nM

stdin: Can you look up EC50 on human KV7.2/KV7.3 (Homo sapiens (Human), UniProt O43525+O43526) for O=S1(=O)CC[C@H](Oc2ccc3c(Nc4ccc(Cl)nc4)nccc3c2)C1 ?
stdout: 1000 to 10000 nM

stdin: Request - read-out EC50 | tested on human KV7.2/KV7.3 (Homo sapiens (Human), UniProt O43525+O43526) | compound CC(Oc1ccc2c(Nc3ccc(Cl)nc3)nccc2c1)c1cn[nH]c1 (stereo not drawn)
stdout: 1000 to 10000 nM

stdin: Which EC50 is reported with human KV7.2/KV7.3 (Homo sapiens (Human), UniProt O43525+O43526) for this entry: N#CCn1cc(COc2ccc3c(Nc4ccc(Cl)nc4)nccc3c2)cn1 ?
stdout: < 1000 nM

----------
// reported pEC50 for each item listed
target: human KV7.2/KV7.3 (Homo sapiens (Human), UniProt O43525+O43526); test: Potassium flux assay (IPG-2 AM dye); details: TREX HEK 293 or HEK 293 cells expressing human KV7.2/KV7.3; arithmetic mean values
pEC50: −log10 of the molar value. Structures can show the parent of a compound that is named as a salt.

Below, 2 compounds whose answers are already recorded.
{"compound": "O[C@@H]1COC[C@@H]1Oc1ccc2c(Nc3ccc(Cl)nc3)nccc2c1 (racemic)", "pEC50": "5.00 to 6.00"}
{"compound": "Clc1ccc(Nc2nccc3cc(OC4CCN(Cc5ccccc5)CC4)ccc23)cn1 [Example 90, trifluoroacetate]", "pEC50": "5.00 to 6.00"}

stdin: Form field: reported pEC50 of CO[C@H](C)c1ccc2c(Nc3ccc(Cl)nc3)nccc2c1
stdout: 4.52 to 5.00

stdin: Reported pEC50, compound Cc1ccc(Nc2nccc3cc(OCC4(F)CC4)ccc23)cn1 : ____
stdout: 5.00 to 6.00

stdin: For the compound shown here, OC(COc1ccc2c(Nc3ccc(Cl)nc3)nccc2c1)C(F)(F)F (stereo not shown) , give the reported pEC50.
stdout: 5.00 to 6.00

stdin: Recorded pEC50 for Clc1ccc(Nc2nccc3cc(OCc4ccccc4)ccc23)cn1 , please?
stdout: ≤ 4.52

----------
Known EC50 of a selection of compounds
molecular target: human KV7.2/KV7.3 (Homo sapiens (Human), UniProt O43525+O43526); assay: Potassium flux assay (IPG-2 AM dye); details: TREX HEK 293 or HEK 293 cells expressing human KV7.2/KV7.3; arithmetic mean values

Worked examples follow.
{"compound": "Clc1ccc(Nc2nccc3cc(OC4CCOCC4)ccc23)cn1", "assay_result": "< 1000 nM"}
{"compound": "CS(=O)(=O)N1CCC(Oc2ccc3c(Nc4ccc(Cl)nc4)nccc3c2)CC1", "assay_result": "1000 to 10000 nM"}
{"compound": "Cc1cnc(Nc2ccc(Cl)nc2)c2[nH]ccc12", "assay_result": "1000 to 10000 nM"}

stdin: EC50 of Clc1ccc(Nc2nccc3cc(OCCCc4cn[nH]c4)ccc23)cn1 on human KV7.2/KV7.3 (Homo sapiens (Human), UniProt O43525+O43526)?
stdout: < 1000 nM

stdin: Fill in the recorded EC50 for this compound, with human KV7.2/KV7.3 (Homo sapiens (Human), UniProt O43525+O43526) as test system: Cc1ncc(Nc2nccc3cc(OCC4(F)CC4)ccc23)cn1
stdout: < 1000 nM

stdin: Notebook: pull reported EC50 for human KV7.2/KV7.3 (Homo sapiens (Human), UniProt O43525+O43526), entry Cc1ccc(COc2ccc3c(Nc4ccc(Cl)nc4)nccc3c2)cn1
stdout: < 1000 nM

stdin: Tell me reported EC50 for O[C@@H]1CCC[C@H](Oc2ccc3c(Nc4ccc(Cl)nc4)nccc3c2)C1 [Example 346] , tested with human KV7.2/KV7.3 (Homo sapiens (Human), UniProt O43525+O43526).
stdout: < 1000 nM

stdin: Value wanted: EC50 (human KV7.2/KV7.3 (Homo sapiens (Human), UniProt O43525+O43526)) of entry Cc1oncc1COc1ccc2c(Nc3ccc(Cl)nc3)nccc2c1
stdout: < 1000 nM
